settings: in n-pentanol, 303.15 K
assay-metric: solubility (mole fraction)

mol_smiles=O=C(/C=C/c1cn(-c2ccccc2)nc1-c1ccccc1)c1nc2ccccc2[nH]1 assay_metric="solubility (mole fraction)" data_value=0.000332
mol_smiles=O=C(/C=C/c1cn(-c2ccccc2)nc1-c1ccccc1Cl)c1nc2ccccc2[nH]1 assay_metric="solubility (mole fraction)" data_value=0.0004
mol_smiles=COc1ccc(-c2nn(-c3ccccc3)cc2/C=C/C(=O)c2nc3ccccc3[nH]2)cc1OC assay_metric="solubility (mole fraction)" data_value=0.00033
mol_smiles=COc1ccc(-c2nn(-c3ccccc3)cc2/C=C/C(=O)c2nc3ccccc3[nH]2)cc1 assay_metric="solubility (mole fraction)" data_value=0.00162
mol_smiles=COc1cccc(-c2nn(-c3ccccc3)cc2/C=C/C(=O)c2nc3ccccc3[nH]2)c1 assay_metric="solubility (mole fraction)" data_value=0.000274
mol_smiles=O=C(/C=C/c1cn(-c2ccccc2)nc1-c1ccc(Cl)cc1)c1nc2ccccc2[nH]1 assay_metric="solubility (mole fraction)" data_value=0.000275

Here's the next entry for you.
-- ask Given the molecule O=C(/C=C/c1cn(-c2ccccc2)nc1-c1cccc([N+](=O)[O-])c1)c1nc2ccccc2[nH]1 , what is its reported solubility (mole fraction)?
-- reply 0.000326
